Entry source: the supplement of paper PMC8617591

# System: Mycobacterium tuberculosis Erdman (autoluminescent)
# measurement protocol: AUC25, normalised area under dose response up to IC25 (three-drug combination) (fraction (0-1)); higher = more potent at low dose
# test parameters: in vitro model: cholesterol-high 0.2 mM; time point: terminal (~4-5 doublings, model-specific)
measurement label: AUC25

INSERT INTO assay_data (molecule, target_entity, measurement_label, reported) VALUES
  ('COc1nc2ccc(Br)cc2cc1[C@@H](c1ccccc1)[C@@](O)(CCN(C)C)c1cccc2ccccc12 [bedaquiline] + CC(=O)NC[C@H]1CN(c2ccc(N3CCOCC3)c(F)c2)C(=O)O1 [linezolid] + NC(=O)c1cnccn1 [pyrazinamide]', 'Mycobacterium tuberculosis Erdman (autoluminescent)', 'AUC25', 0.105),
  ('NNC(=O)c1ccncc1 [isoniazid] + CC(=O)NC[C@H]1CN(c2ccc(N3CCOCC3)c(F)c2)C(=O)O1 [linezolid] + CO[C@H]1/C=C/O[C@@]2(C)Oc3c(C)c(O)c4c(O)c(c(/C=N/N5CCN(C6CCCC6)CC5)c(O)c4c3C2=O)NC(=O)/C(C)=C\C=C\[C@H](C)[C@H](O)[C@@H](C)[C@@H](O)[C@@H](C)[C@H](OC(C)=O)[C@@H]1C [rifapentine]', 'Mycobacterium tuberculosis Erdman (autoluminescent)', 'AUC25', 0.093),
  ('CC(C)/N=c1\cc2n(-c3ccc(Cl)cc3)c3ccccc3nc-2cc1Nc1ccc(Cl)cc1 [clofazimine] + NNC(=O)c1ccncc1 [isoniazid] + COc1c(N2C[C@@H]3CCCN[C@@H]3C2)c(F)cc2c(=O)c(C(=O)O)cn(C3CC3)c12 [moxifloxacin]', 'Mycobacterium tuberculosis Erdman (autoluminescent)', 'AUC25', 0.0858),
  ('COc1nc2ccc(Br)cc2cc1[C@@H](c1ccccc1)[C@@](O)(CCN(C)C)c1cccc2ccccc12 [bedaquiline] + CC[C@@H](CO)NCCN[C@@H](CC)CO [ethambutol] + NNC(=O)c1ccncc1 [isoniazid]', 'Mycobacterium tuberculosis Erdman (autoluminescent)', 'AUC25', 0.0384);

----------
# System: Mycobacterium tuberculosis Erdman (autoluminescent)
# measurement protocol: AUC25, normalised area under dose response up to IC25 (three-drug combination) (fraction (0-1)); higher = more potent at low dose
# test parameters: in vitro model: butyrate; time point: terminal (~4-5 doublings, model-specific)
measurement label: AUC25

INSERT INTO assay_data (compound, reported) VALUES
  ('CC(C)/N=c1\cc2n(-c3ccc(Cl)cc3)c3ccccc3nc-2cc1Nc1ccc(Cl)cc1 [clofazimine] + COc1c(N2C[C@@H]3CCCN[C@@H]3C2)c(F)cc2c(=O)c(C(=O)O)cn(C3CC3)c12 [moxifloxacin] + CO[C@H]1/C=C/O[C@@]2(C)Oc3c(C)c(O)c4c(O)c(c(/C=N/N5CCN(C6CCCC6)CC5)c(O)c4c3C2=O)NC(=O)/C(C)=C\C=C\[C@H](C)[C@H](O)[C@@H](C)[C@@H](O)[C@@H](C)[C@H](OC(C)=O)[C@@H]1C [rifapentine]', 0.0865),
  ('COc1nc2ccc(Br)cc2cc1[C@@H](c1ccccc1)[C@@](O)(CCN(C)C)c1cccc2ccccc12 [bedaquiline] + CC(=O)NC[C@H]1CN(c2ccc(N3CCOCC3)c(F)c2)C(=O)O1 [linezolid] + CO[C@H]1/C=C/O[C@@]2(C)Oc3c(C)c(O)c4c(O)c(c(/C=N/N5CCN(C)CC5)c(O)c4c3C2=O)NC(=O)/C(C)=C\C=C\[C@H](C)[C@H](O)[C@@H](C)[C@@H](O)[C@@H](C)[C@H](OC(C)=O)[C@@H]1C [rifampicin]', 0.0706),
  ('CC(C)/N=c1\cc2n(-c3ccc(Cl)cc3)c3ccccc3nc-2cc1Nc1ccc(Cl)cc1 [clofazimine] + CC[C@@H](CO)NCCN[C@@H](CC)CO [ethambutol] + CO[C@H]1/C=C/O[C@@]2(C)Oc3c(C)c(O)c4c(O)c(c(/C=N/N5CCN(C)CC5)c(O)c4c3C2=O)NC(=O)/C(C)=C\C=C\[C@H](C)[C@H](O)[C@@H](C)[C@@H](O)[C@@H](C)[C@H](OC(C)=O)[C@@H]1C [rifampicin]', 0.1);
